# credit: ChEMBL document CHEMBL2203224

system: Caenorhabditis elegans; test: Toxicity in L4 larvae of Caenorhabditis elegans at 800 uM after 8 hrs; assay type: organism-based; conditions: in vivo
measured_parameter: Activity

O=c1oc2c(O)c(O)cc3c(=O)oc4c(O)c(O)cc1c4c23
Toxic
O=C(OC[C@H]1O[C@@H](OC(=O)c2cc(O)c(O)c(OC(=O)c3cc(O)c(O)c(O)c3)c2)[C@H](OC(=O)c2cc(O)c(O)c(OC(=O)c3cc(O)c(O)c(O)c3)c2)[C@@H](OC(=O)c2cc(O)c(O)c(OC(=O)c3cc(O)c(O)c(O)c3)c2)[C@@H]1OC(=O)c1cc(O)c(O)c(OC(=O)c2cc(O)c(O)c(O)c2)c1)c1cc(O)c(O)c(OC(=O)c2cc(O)c(O)c(O)c2)c1
Toxic
O=C(O)c1cc(O)c(O)c(O)c1
Non-toxic
Oc1cc(O)c2c(c1)O[C@H](c1ccc(O)c(O)c1)[C@@H](O)C2
Non-toxic
